# SYSTEM: human Claudin18.2 (human)
# TEST: cell-based or functional assay
QUANTITY: CDC % Relative activity (%)
Give a bare numeral; the unit % is implied.

# CDC % Relative activity lookup, item 259C6F7 (antibody, V domains shown) VH: QAYLQQSGAELVRSGASVKMSCKASGYTFSSHNIHWVKQTPGQGLEWIGYIYPGNGDTNYNQKFKGKATLTADTSSSTAYMQISSLTSEDSAVYFCARDYYGNSFVYWGQGTLVTVSA VL: DIVMIQSPSSLTEKAGEKVSMSCKSSQSLLNSGNQKNYLTWYQQKPGQPPKLLIYWASTRESGVPDRFTGSGSGTDFTLTISSVQAEDLAVYYCQNAYRFPFTFGAGTKLELK
117

Query 196A12B10 (antibody, V domains shown) VH: QIQWVQSGPELKKPRETVKISCKASGYTFTDYSMHWVKQAPGKGLKWMGWINSETGEATYADDFRGRFALSLETSATTAFLQINSLKNEDTGTYFCARFYYGNSFASWGQGTTLTVSS VL: DIVMTQFPSSLTVTAGEKVTMTCKSSQSLLNGGNQKNYLTWYQQKPGLPPKLLIYWASTRESGVPDRFTGSGSGTEFTLTISSVQAEDLAVYYCQNNYYFPLTFGAGTKLELK next
93.6

Queued: 405G8F11 (antibody, V domains shown) VH: DVQLVESGGGLVQPGGSRKLSCVTSGFTFSSFGMHWVRQAPEKGLEWVAYISSGSSPIYYADTVKGRFTISRDNPKNTLFLQMSSLRSEDTAMYFCARFYYGNSFAYWGQGTLVTVSA VL: DIVMTQSPSSLTVTAGEKVTMNCKSSQSLLNSGNQKNYLTWYQQKLGQPPKLLMYWASTRESGVPDRFTGSGSGTDFTLTISSVQAEDLAVYFCQSAFSYPLTFGAGTKLELK
0.08
